- Tested on: Shig. sonn
- assay_summary: in vitro antibacterial activity, agar dilution (Shig. sonn)
- Format: cell-based
- Design: unit not given here
- condition_parameters: strain N9
assay_endpoint: minimum inhibitory concentration

[[record]]
molecule = "CO/N=C(\\C(=O)N[C@@H]1C(=O)N2C(C(=O)O)=C(c3csc(C(c4ccccc4)c4ccccn4)n3)CC[C@H]12)c1csc(N)n1 (stereo partly drawn) [Example 38]"
assay_endpoint = "minimum inhibitory concentration"
observed_measurement = 8

[[record]]
molecule = "CO/N=C(\\C(=O)N[C@@H]1C(=O)N2C(C(=O)O)=C(c3csc(-c4ccccc4)n3)CC[C@H]12)c1csc(N)n1 [Example 31]"
assay_endpoint = "minimum inhibitory concentration"
observed_measurement = 1

[[record]]
molecule = "CO/N=C(\\C(=O)N[C@@H]1C(=O)N2C(C(=O)O)=C(c3csc(-c4ccco4)n3)CC[C@H]12)c1csc(N)n1 [Example 32]"
assay_endpoint = "minimum inhibitory concentration"
observed_measurement = 1

[[record]]
molecule = "CO/N=C(\\C(=O)N[C@@H]1C(=O)N2C(C(=O)O)=C(c3csc(-c4ccc(F)cc4)n3)CC[C@H]12)c1csc(N)n1 [Example 37]"
assay_endpoint = "minimum inhibitory concentration"
observed_measurement = 1

[[record]]
molecule = "Cn1c([N+](=O)[O-])cnc1-c1nc(C2=C(C(=O)O)N3C(=O)[C@@H](NC(=O)/C(=N\\O)c4csc(N)n4)[C@H]3CC2)cs1 [Example 33]"
assay_endpoint = "minimum inhibitory concentration"
observed_measurement = 2

